Test system: Plasmodium berghei
measurement.protocol: Screen against P. berghei liver stage (PbLuc), transformed with Luciferase, at 10uM
Type: functional, HepG2
condition.notes: tested at 10 uM
In all, about 69,000 compounds went through this assay and about 8,600 (12%) showed an effect of 50% or more. Only a selection was taken, and strong results are over-represented in it overall.
quantity.kind: INHIBITION (%)
// note: answer is a bare numeric in %

Here is how some compounds turned out for INHIBITION.
Lookup: // returns reported INHIBITION for input COCCN1CCN(CCS(C)(=O)=O)CC1C (stereo not drawn)
Found: -73.1

Lookup: // returns reported INHIBITION for input Cn1cccc1CN(C(=O)Cc1cccs1)C1CC1
Found: 6.54

Lookup: // returns reported INHIBITION for input CCCNc1ncc(-c2cc(C3CC3)nc(N)c2C#N)cn1
Found: 34.4

Others:
Lookup: // returns reported INHIBITION for input Cn1c2c(c(=O)n1C)CN(C(=O)c1cccc(F)c1)CCC2
Found: 46.6

Lookup: // returns reported INHIBITION for input Cc1cscc1C(=O)N1CCCC1CC(=O)c1cnn(C)c1 (stereo not drawn)
Found: 12.7

Lookup: // returns reported INHIBITION for input Cc1noc(C)c1CC(=O)Nc1ccn(CC(N)=O)n1
Found: 37.6

Lookup: // returns reported INHIBITION for input CCN1C(=O)CCCC12CCCN(C(=O)c1ccoc1C)C2 (stereo not drawn)
Found: 32.1

###

Test system: Plasmodium berghei
measurement.protocol: Screen against P. berghei liver stage (PbLuc), transformed with Luciferase, at 10uM
Format: functional, HepG2
condition.notes: tested at 10 uM
Out of some 69,000 compounds screened, about 8,600 (12%) showed an effect of 50% or more. Shown is part of a subset that was picked to be rich in strong results.
quantity.kind: INHIBITION
Form entry: enter the amount, then its unit.

Here is how some molecules turned out for INHIBITION.
Lookup: // returns reported INHIBITION for input CC(C)(C)n1ncc2c1NC(=O)CC2c1ccc(C(=O)O)cc1 (configuration not stated)
Found: -12.2%

Lookup: // returns reported INHIBITION for input O=C(CC1CN(Cc2ccccc2)CCO1)Nc1ccsc1 (configuration not stated)
Found: 31.3%

Lookup: // returns reported INHIBITION for input CCNC(=O)NC(=O)CSC(C)c1ccccc1F (configuration not stated)
Found: -32.3%

Lookup: // returns reported INHIBITION for input CC(SCC(=O)N(C)CC(=O)NC1CC1)c1ccccc1F (configuration not stated)
Found: 85.7%

Lookup: // returns reported INHIBITION for input NC(=O)c1cncc(N2CCN(Cc3cccc4nsnc34)CC2)n1
Found: -47.8%

Others:
Lookup: // returns reported INHIBITION for input NC(=O)c1ccc(N2CCN(Cc3ccc(F)cc3Cl)CC2)nn1
Found: 81.2%

Lookup: // returns reported INHIBITION for input NC(=O)c1cncc(N2CCN(Cc3ccc(F)cc3Cl)CC2)n1
Found: 69.3%

Lookup: // returns reported INHIBITION for input CN(Cc1ncc[nH]1)CC(c1cccs1)N1CCOCC1 (configuration not stated)
Found: 12.8%

Lookup: // returns reported INHIBITION for input Cc1cc(C)nc(C2CCN(C(=O)CO)CC2)n1
Found: 26.65%

Lookup: // returns reported INHIBITION for input Cc1ccc(C(=O)N(C)Cc2ccc(Br)o2)c(=O)[nH]1
Found: 38.6%

Lookup: // returns reported INHIBITION for input CNC(=O)NC(=O)CSC(C)c1ccccc1F (configuration not stated)
Found: 55%

Lookup: // returns reported INHIBITION for input CC(Cn1cccn1)NCc1csc2c1CCCC2 (configuration not stated)
Found: 46.6%

###

Test system: Plasmodium berghei
measurement.protocol: Screen against P. berghei liver stage (PbLuc), transformed with Luciferase, at 10uM
Format: functional, HepG2
condition.notes: tested at 10 uM
The campaign covered roughly 69,000 compounds. About 8,600 (12%) showed an effect of 50% or more. Only a selection was taken, and strong results are over-represented in it overall.
Entries annotated with measured INHIBITION
Form entry: enter the amount, then its unit.

Here is how some molecules turned out for INHIBITION.
Lookup: // returns reported INHIBITION for input CCCC(=O)N1CCC(C(=O)NCCNc2ncccn2)CC1
Found: 21.6%

Lookup: // returns reported INHIBITION for input COCC(=O)N1CCc2nc(C(=O)N(C)C)sc2CC1
Found: -6.46%

Lookup: // returns reported INHIBITION for input O=C(CCCNc1ncccn1)N1CCCC(n2cncn2)C1 (configuration not stated)
Found: 27.6%

Lookup: // returns reported INHIBITION for input CC(NC(=O)CNCCn1cccn1)c1ccc2c(c1)OCCO2 (configuration not stated)
Found: 24.8%

Lookup: // returns reported INHIBITION for input COC(=O)CCC(=O)N1CCc2nc(C(=O)N3CCCCC3)sc2CC1
Found: 57.1%

Others:
Lookup: // returns reported INHIBITION for input CC(C)Cc1nc(CN(C)CCOc2ccc(F)cc2)no1
Found: 59.4%

Lookup: // returns reported INHIBITION for input Cc1ccc(F)c2c1N(C(=O)c1cn(CC(=O)N(C)C)nn1)CCC2
Found: -9.21%

Lookup: // returns reported INHIBITION for input CCCc1nnc(N[C@H](C)c2ccc(OC)cc2)o1
Found: 52.8%

Lookup: // returns reported INHIBITION for input FC(F)CN1CCC(NCCc2ccc(-n3cccn3)cc2)CC1
Found: 6.83%

###

Test system: Plasmodium berghei
measurement.protocol: Screen against P. berghei liver stage (PbLuc), transformed with Luciferase, at 10uM
Format: functional, HepG2
condition.notes: tested at 10 uM
Out of some 69,000 compounds screened, about 8,600 (12%) showed an effect of 50% or more. What follows is part of a selection rich in strong results, with near analogues and random picks from the rest.
Entries annotated with measured INHIBITION
// note: answer is a bare numeric in %

Here is how some compounds turned out for INHIBITION.
Lookup: Provide the documented INHIBITION with Plasmodium berghei as the system for O=C(NCCCC(=O)N1CCN(CC2CC2)c2ccccc21)C1CC1
Found: 22.8

Lookup: Provide the documented INHIBITION with Plasmodium berghei as the system for CCc1nc(C2CCCN2Cc2ncc(C)c(OC)c2C)no1 (centres undefined)
Found: 11.4

Lookup: Provide the documented INHIBITION with Plasmodium berghei as the system for CCn1cc(Br)c(C(=O)NCc2ccccc2)n1
Found: 17

Now for a further compound.
Lookup: Provide the documented INHIBITION with Plasmodium berghei as the system for Cc1nc(CN2CCC3(CCN(c4cnn(C)c4)C3=O)C2)cs1 (centres undefined)
Found: -17.2

###

Test system: Plasmodium berghei
measurement.protocol: Screen against P. berghei liver stage (PbLuc), transformed with Luciferase, at 10uM
Type: functional, HepG2
condition.notes: tested at 10 uM
The whole screen tested about 69,000 compounds, of which about 8,600 (12%) showed an effect of 50% or more. This excerpt belongs to a sample that is enriched for strong results.
quantity.kind: INHIBITION (%)
// note: answer is a bare numeric in %

Lookup: // returns reported INHIBITION for input CN(C)C(=O)CNC(=O)c1ccc(Cl)cc1F
Found: -12.6

Lookup: // returns reported INHIBITION for input CN(Cc1cccc(OC(F)(F)F)c1)C(=O)c1cnsn1
Found: 68.6

Lookup: // returns reported INHIBITION for input N#CC1(c2ccccc2)CCN(C(=O)C2CCCN(C(N)=O)C2)CC1 (stereo not given)
Found: 30.5

Lookup: // returns reported INHIBITION for input CCc1cc2c(N3CCCC(c4cc(C(N)=O)[nH]n4)C3)ncnc2s1 (stereo not given)
Found: 55

Now for a further compound.
Lookup: // returns reported INHIBITION for input CC(=O)N1CCO[C@@H]2CN(S(=O)(=O)c3ccc(F)cc3)CC[C@@H]2C1
Found: 45.4

###

System: Plasmodium berghei
measurement.protocol: Screen against P. berghei liver stage (PbLuc), transformed with Luciferase, at 10uM
Type: functional, HepG2
condition.notes: tested at 10 uM
Out of some 69,000 compounds screened, about 8,600 (12%) showed an effect of 50% or more. The sample holds strong results, similar compounds and a random draw of the others, so the mix is not that of the screen.
quantity.kind: INHIBITION (%)
// note: answer is a bare numeric in %

Here is how some molecules turned out for INHIBITION.
Lookup: // returns reported INHIBITION for input O=C(c1ccnnc1)N1CCO[C@H]2[C@H](Oc3cccnc3)CC[C@@H]21
Found: 13.7

Lookup: // returns reported INHIBITION for input CN1CCN(C2CCN(C(C(N)=O)c3ccccc3)CC2)C1=O (centres undefined)
Found: 20.9

Lookup: // returns reported INHIBITION for input Cc1nn(C)c2cn(C(C)C(=O)NCc3cccc(F)c3)nc12 (centres undefined)
Found: 58.2

Lookup: // returns reported INHIBITION for input CCn1nnc2c1C(COC)CN(Cc1cccs1)C2 (centres undefined)
Found: -0.113

Now for a further molecule.
Lookup: // returns reported INHIBITION for input CS(=O)(=O)CCNC(=O)N1CC2(CCCC2)c2ccccc21
Found: -8.91
